Cited source: ChEMBL document CHEMBL1932917

This listing pairs molecules with measured Vd.
# Protocol Description: Volume of distribution in rat at 1 mg/kg, iv
# Type: ADME, organism-based
# Parameters: dose 1 mg/kg, route intravenous
# Condition Details: in vivo
Field format: number, assumed L/kg, no unit text.

Example results:
CC1CC(=O)NN=C1c1ccc(OCCCN2CCC[C@H]2C)cc1 (stereo in doubt; 19a) = 3.5
C[C@@H]1CCCN1CCCOc1ccc(C2=NNC(=O)C(C)(C)C2)cc1 = 4.7

Lab note: next molecule to report on.
Requested field: Vd. Item: `C[C@@H]1CCCN1CCCOc1ccc(C2=NNC(=O)CC2)cc1` 0.8
